# Tested on: UACC-62 melanoma
# protocol_notes: NCI-60 one-dose screen, 48 h
# applied_conditions: 10 µM unless noted
Compounds without any hit were thinned out: in the full panel of roughly 83,000, 20% have a hit. Activity calls are given as the source filed them. Rule for the calls: active = growth percent below 10; inactive = the rest.
Could you please pick one outcome from this set? active, inactive

// below: answered compounds
Cc1cc2cn3c4ccc(O)cc4nc(N)c3c2cc1C = inactive
O=C1CCNC1 = inactive
COC(=O)/C=C1/CCCCC1(C)C(=O)OC (stereo unspecified) = inactive
CC(=O)Nc1ccc(CC#N)cc1Br = inactive
CCOC1=C(Cl)C(=O)C(OCC)=C(Cl)C1=O = inactive

From here, focus on the item given below.
-- ask Short answer needed: outcome of this test for "O=C(CN1CCN(c2cccc(Cl)c2)CC1)N1CCN(c2nnc(-c3ccc(Cl)cc3)c(-c3ccc(Cl)cc3)n2)CC1" ?
-- reply inactive
